All figures here come from ChEMBL document CHEMBL1139422.

biological target: Protein deacetylase HDAC6 (Homo sapiens); test: Inhibition of HDAC6 in human U937 cells assessed as induction of alpha-tubulin acetylation after 24 hrs by Western blot analysis; assay type: cell-based; settings: U-937
Active and inactive are the calls of the source. No cut-off for these calls is given here.
Measured Endpoint: Activity

Previously resolved entries follow.
| Query Smiles | Activity |
| --- | --- |
| O=C(/C=C/c1ccc(/C=C/C(=O)c2ccc(Cl)cc2)o1)NO | Active |
| O=C(/C=C/c1ccc(/C=C/C(=O)c2ccccc2)o1)NO | Active |
| CC(C)c1ccc(C(=O)/C=C/c2ccc(/C=C/C(=O)NO)o2)cc1 | Active |
| COc1ccc2cc(C(=O)/C=C/c3ccc(/C=C/C(=O)NO)o3)ccc2c1 | Active |
| O=C(/C=C/c1ccc(/C=C/C(=O)c2cccc(Cl)c2)o1)NO | Active |

Task: Which Activity value belongs to O=C(/C=C/c1ccc(/C=C/C(=O)c2cc(Cl)ccc2Cl)o1)NO ?
Result: Active
